# System: CAL33
# test.description: MTT assay
# Type: cell-based
# run.conditions: Homo sapiens, CAL-33, 48 hours
parameter.measured: pIC50
Conceptually, pIC50 converts a concentration in mol/L into minus its log10.

Recall the recorded pIC50 for CCCCCC1=NN(C(=O)CCO)OC(CCCCC)C1 (stereo not shown) with CAL33 and state it. 7.37

* * *

# test.description: Cellular viability, CellTiter Glo (Table V, cells not stated)
# Format: cell-based
# run.conditions: human; 25 μM; relative to DMSO control
# From the text: All assays for assessing anti-HIV activity were taken in parallel to determine cellular viability of the culture in the presence or absence of different concentrations of the isolated molecule. […] All data are expressed as percentage relative to a control with DMSO at the same concentration. […]
parameter.measured: viability at 25 µM (%)
Numbers only; they are read as %.

If you can, please state the reported viability at 25 µM value of CCCCCC1=NN(C(=O)CCO)OC(CCCCC)C1 (stereo not shown) . 4
